Listing of entries alongside the reported EC50.
Tested on: HCV genotype 1b replicon with NS5A Y93H mutation
measurement.description: Transiently transfected assay of genotype 1b resistance mutant RNA Y93H
Assay type: cell-based
experimental.conditions: Hepatitis C virus, Huh-7.5.1, 72 h, read-out: HCV Mutation Y93H
Description: <Experimental Example 3> Transiently Transfected Assay of Genotype 1b Resistance Mutant RNAs Replicon genomes substituted with Y93H, L31V and L31V+Y93H (double mutant), the resistance mutants to Daclatasvir with mutations at the NS5A protein domain 1. These HCV resistance mutant genomes were linearized with scal restriction enzyme, and then the mutated HCV RNA was synthesized through in vitro transcription. […]

Solved entries (count: 2):
[
  {
    "mol.smiles": "CCCCC1(CCCC)c2cc(NC(=O)[C@@H]3C[C@H](COC)CN3C(=O)[C@H](NC(=O)OC)c3ccccc3)ccc2-c2ccc(NC(=O)[C@@H]3C[C@H](COC)CN3C(=O)[C@H](NC(=O)OC)c3ccccc3)cc21",
    "measured.result": "0.001 to 0.01 nM"
  },
  {
    "mol.smiles": "CCCCC1(CCCC)c2cc(NC(=O)[C@@H]3CC4(CC4)CN3C(=O)[C@H](NC(=O)OC)c3ccccc3)ccc2-c2ccc(-c3cnc([C@@H]4CCCN4C(=O)[C@@H](NC(=O)OC)C(C)C)[nH]3)cc21",
    "measured.result": "0.1 to 1 nM"
  }
]

Ask: Suppose we examine the compound CCCC1(CCC)c2cc(NC(=O)[C@@H]3CCCN3C(=O)[C@H](NC(=O)OC)c3ccccc3)ccc2-c2ccc(NC(=O)[C@@H]3CCCN3C(=O)[C@H](NC(=O)OC)c3ccccc3)cc21 ; what EC50 value has been reported?
Result: 1 to 100 nM

Ask: Suppose we examine the compound CCCCC1(CCCC)c2cc(NC(=O)[C@@H]3CC(F)(F)CN3C(=O)[C@H](NC(=O)OC)c3ccccc3)ccc2-c2ccc(NC(=O)[C@@H]3CC(F)(F)CN3C(=O)[C@H](NC(=O)OC)c3ccccc3)cc21 ; what EC50 value has been reported?
Result: 1 to 100 nM

Ask: Suppose we examine the compound CCCCC1(CCCC)c2cc(NC(=O)[C@@H]3CC4(CC4)CN3C(=O)[C@H](NC(=O)OC)c3ccccc3)ccc2-c2ccc(NC(=O)[C@@H]3CC4(CC4)CN3C(=O)[C@H](NC(=O)OC)c3ccccc3)cc21 ; what EC50 value has been reported?
Result: 1 to 100 nM

----------
Tested on: HCV genotype 1b replicon with NS5A Y93H mutation
measurement.description: Transiently transfected assay of genotype 1b resistance mutant RNA Y93H
Format: cell-based
experimental.conditions: Hepatitis C virus, Huh-7.5.1, 72 h, read-out: HCV Mutation Y93H
pEC50: −log10 of the molar value.
assay.metric: pEC50

[
  {
    "compound": "CCCCCC1(CCCCC)c2cc(NC(=O)[C@@H]3CC(=O)CN3C(=O)[C@H](NC(=O)OC)c3ccccc3)ccc2-c2ccc(NC(=O)[C@@H]3CC4(CN3C(=O)[C@H](NC(=O)OC)c3ccccc3)OCCO4)cc21 [Example 18]",
    "target.of.assay": "HCV genotype 1b replicon with NS5A Y93H mutation",
    "pEC50": "9.00 to 10.00"
  }
]

Turning now to a further record.
Ask: Suppose we examine the compound CCCCC1(CCCC)c2cc(NC(=O)[C@@H]3CC(=O)CN3C(=O)[C@H](NC(=O)OC)c3ccccc3)ccc2-c2ccc(NC(=O)[C@@H]3CC4(CN3C(=O)[C@H](NC(=O)OC)c3ccccc3)OCCO4)cc21 [Example 7] ; what pEC50 value has been reported?
Result: 10.00 to 11.00
